Tested on: UACC-257
PROTOCOL DETAILS: NCI tumour cell line growth inhibition, 48 h
Calls of active or inactive are those of the source. No stated cut-off is given here; in the data, active = GI50 up to about 1.1 µM and inactive = higher.
Hi! Could you answer with just one of these? active, inactive

{"columns": ["COMPOUND", "CATEGORY"],
 "data": [
  ["COC1CC(CC2CCC(C)C(C(C)C(=O)O)O2)OC2(OC(C)(C3CCC(C)(C4OC(C5OC(O)(CO)C(C)CC5C)CC4C)O3)CC2C)C1C (stereo unspecified)", "active"]
]}

Request: # lookup: test call for Cc1cn(C2CC(N=[N+]=[N-])C(CO)O2)c(=O)n(CCCCO)c1=O (stereo unspecified)
Response: inactive

Request: Now the compound CC1OC(n2cc(F)c(=O)[nH]c2=O)CCC1=O (stereo unspecified)
Response: inactive

Request: Try this compound next: "Cc1ccc(C2=Nc3ccccc3NC(=O)C2)cc1"
Response: inactive

Request: Now try "COc1ccccc1-n1nnc2c(N)nc(N)nc21" .
Response: inactive

Request: Now the same for N#CCCSC(=S)C1CCCC1=N (stereo unspecified)
Response: inactive
